Source listed as patent US20260217708A1.

biological target: system Xc^− (Homo sapiens); assay: [^14C]L-Cystine uptake assay; type: cell-based; design: endogenous in cells; host or cells: H4 cells; settings: H4 cells, sodium-free HEPES buffer, 0.5 μM L-[14C]Cystine and 4.5 μM L-Cystine, 1 hour at 37° C.; read-out: pIC50 [^14C] L-Cystine uptake assay (converted)
Sequence (Q9UPY5 whole entry): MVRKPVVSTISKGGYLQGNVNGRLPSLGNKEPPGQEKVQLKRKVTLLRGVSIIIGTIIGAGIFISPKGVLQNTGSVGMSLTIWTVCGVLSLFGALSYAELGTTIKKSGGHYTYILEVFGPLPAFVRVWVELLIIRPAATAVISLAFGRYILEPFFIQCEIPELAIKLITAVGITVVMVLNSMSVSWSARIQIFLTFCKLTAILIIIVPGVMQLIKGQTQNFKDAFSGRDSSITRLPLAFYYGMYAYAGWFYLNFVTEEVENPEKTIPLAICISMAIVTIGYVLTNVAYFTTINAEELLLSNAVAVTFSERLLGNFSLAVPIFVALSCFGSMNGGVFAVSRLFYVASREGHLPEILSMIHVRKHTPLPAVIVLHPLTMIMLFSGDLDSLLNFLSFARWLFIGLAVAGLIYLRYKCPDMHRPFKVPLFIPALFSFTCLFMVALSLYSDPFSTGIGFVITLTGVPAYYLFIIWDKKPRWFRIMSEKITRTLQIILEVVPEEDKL
Sequence (P08195 102-630 partner): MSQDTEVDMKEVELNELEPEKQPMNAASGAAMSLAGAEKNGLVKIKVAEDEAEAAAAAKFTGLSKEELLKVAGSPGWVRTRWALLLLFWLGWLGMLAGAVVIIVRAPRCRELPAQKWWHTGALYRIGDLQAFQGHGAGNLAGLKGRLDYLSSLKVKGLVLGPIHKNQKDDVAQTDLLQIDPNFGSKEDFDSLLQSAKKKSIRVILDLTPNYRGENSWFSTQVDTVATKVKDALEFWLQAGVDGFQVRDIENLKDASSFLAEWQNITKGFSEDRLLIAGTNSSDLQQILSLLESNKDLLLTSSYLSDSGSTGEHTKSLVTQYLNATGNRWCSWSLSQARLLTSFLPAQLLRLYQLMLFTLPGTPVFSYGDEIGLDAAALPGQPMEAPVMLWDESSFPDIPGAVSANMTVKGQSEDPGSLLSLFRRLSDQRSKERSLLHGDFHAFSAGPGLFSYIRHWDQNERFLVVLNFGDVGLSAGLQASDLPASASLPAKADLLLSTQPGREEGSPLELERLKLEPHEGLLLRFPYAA
Exercise: state measured IC50 for each of the molecules provided.

1) Cc1cc2c(cn1)-c1cccnc1[C@@H](C)C(=O)N2CC(=O)Nc1ccc(C(F)(F)F)cc1 (single isomer, unassigned) : < 15.8 nM

Give IC50 for each of the items listed below.
1. CC1C(=O)N(CC(=O)Nc2ccc(Cl)c(F)c2)c2cc(Cl)cc(F)c2-c2nccnc21 (single isomer, unassigned)
2. Cc1cc2c(c(F)n1)-c1cccnc1C(CO)C(=O)N2CC(=O)Nc1ccc(C(F)F)cc1 (single isomer, unassigned)
3. Cc1cc2c(c(F)n1)-c1ccc(F)cc1C(O)C(=O)N2CC(=O)Nc1ccc(C(F)F)cc1 (single isomer, unassigned)
4. CC1C(=O)N(CC(=O)Nc2ccc(Cl)c(F)c2)c2cccc(F)c2-c2cccnc21 (single isomer, unassigned)
5. CC1C(=O)N(CC(=O)Nc2ccc(Cl)c(F)c2)c2cc(Cl)cc(F)c2-c2nnccc21 (single isomer, unassigned)

result:
15.8 to 39.8 nM
39.8 to 100 nM
< 15.8 nM
15.8 to 39.8 nM
15.8 to 39.8 nM
